Numbers sourced from BigSolDB 2.1.

settings: in ethyl acetate, 317.25 K

sample_smiles | solubility (mole fraction)
CP(=O)(c1ccccc1)c1ccccc1 | 0.104

###

conditions: in benzene, 298.13 K
readout_kind: solubility (mole fraction)

sample_smiles | obs_value
CP(=O)(c1ccccc1)c1ccccc1 | 0.0698

###

settings: in toluene, 320.95 K

sample_smiles | solubility (mole fraction)
CP(=O)(c1ccccc1)c1ccccc1 | 0.0979

###

details: in ethyl acetate, 307.97 K

sample_smiles | solubility (mole fraction)
CP(=O)(c1ccccc1)c1ccccc1 | 0.0744

###

conditions: in m-xylene, 326.39 K
readout_kind: solubility (mole fraction)

sample_smiles | obs_value
CP(=O)(c1ccccc1)c1ccccc1 | 0.0614
